pIC50: −log10 of the molar value.
Below, pIC50 values reported for Cytochrome P450 2C19 (Homo sapiens) across several publications.

// solved cases for pIC50 follow
COc1cncc(Nc2ccc(C(=O)c3c[nH]c4ncnc(NC(C)C)c34)c(F)n2)c1	> 5.30
CN1CCc2cc(N3CCn4nc(NC(=O)c5ccc(C(=O)NCC#N)s5)cc43)ccc2C1=O	< 4.70
C[C@H]1[C@@H](C(F)F)OC(N)=N[C@]1(C)c1cc(NC(=O)c2cnc(OCF)cn2)ccc1F	≤ 4.70
C[C@@H](c1ccc(-c2nc(C(=O)NC(C)(C)C)cs2)cc1)N1CC[C@](CC(C)(C)O)(c2ccccc2)OC1=O	5.44
CNC(=O)c1cc(COc2nnc(Nc3ccc(OC)cc3)c3ccoc23)ccn1	< 4.70

Value lookup for pIC50; key = C[C@H]1SC(N)=N[C@](C)(c2cc(NC(=O)c3cnc(OCC(F)(F)F)cn3)ccc2F)[C@H]1F ≤ 4.70

Look up pIC50: CS(=O)(=O)CC(=O)Nc1c(-c2ccc(F)c(F)c2)nn2c1C(=O)N[C@@]1(CCOc3cc(F)cc(F)c31)C2 < 4.70
